Provide the reported protein stability index of each item.
B1: WDR41 (parent)
chain: WTMQAYERNFWDPSPQLDTQQEIK

Variants of: B1
Experiment: protein stability index of a GFP-peptide fusion (GPS, HEK-293T) (PSI 1-6); higher = more stable;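 also: lentivirally expressed fusions sorted by FACS into six bins by GFP to DsRed ratio, PSI derived from sequencing read proportions per bin multiplied by bin number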
Details: c terminus: a fixed tail appended
Reply: number alone, nothing else.

Query: Return protein stability index for the following variant: `E22A`
Reply: 2.45

Query: Return protein stability index for the following variant: `M3L`
Reply: 2.69

Query: Return protein stability index for the following variant: `D12Y`
Reply: 1.4

Query: Return protein stability index for the following variant: `E22C`
Reply: 2.55

Query: Return protein stability index for the following variant: `Q21M`
Reply: 2.93

Query: Return protein stability index for the following variant: `Q20I`
Reply: 2.07

Query: Return protein stability index for the following variant: `A5H`
Reply: 3.47

Query: Return protein stability index for the following variant: `L17M`
Reply: 3.2

Query: Return protein stability index for the following variant: `P15R`
Reply: 1.99
